Task for the reader: assign each of the following compounds its reported melting point.

# compound, melting point
records = [
    ("O=C(Nc1c(Cl)cc(-c2n[nH]c(=O)o2)c2c1OCCO2)OCc1ccccc1", "230 °C"),
    ("CC1(C)CC(NS(C)(=O)=O)c2ccccc21 (stereo unspecified)", "117 to 119 °C"),
    ("O=S1(=O)N=Cc2ccccc2O1", "44 to 47 °C"),
    ("O=S(=O)(O)c1ncnn1CC(O)(Cc1ccccc1Cl)C1(Cl)CC1 (stereo unspecified)", "68 to 70 °C"),
    ("OCc1cn2c(n1)CN=C(c1ccccc1)c1cc(C(F)(F)F)ccc1-2", "193 to 194 °C"),
]

The following compounds each have a reported value; give each one's melting point.
1. O=C(CNc1ccc2[nH]c(=O)oc2c1)N1CCC(Cc2ccccc2)CC1
2. CCOC(=O)CNC(=O)Oc1cccc2ccc(C)nc12
3. CCCC(NS(=O)(=O)c1ccc(Cl)cc1)C(=S)Nc1ccc(CCC(=O)OC)cc1 (racemic)
4. COc1ccc(C2=N[C@H](c3ccccc3)CO2)cc1C#CCN(O)C(N)=O
5. COC(=O)c1cc(N)c2nc(C)nn2c1
6. CCCc1nn(C)c2c(=O)[nH]c(-c3cc([N+](=O)[O-])ccc3OCC)nc12
7. CCOCN(C(=O)CCl)c1c(C)cccc1[N+](=O)[O-]

## Output
1: 204 to 206 °C; 2: 118 to 120 °C; 3: 116 to 118 °C; 4: 190 to 192 °C; 5: 212 °C; 6: 214 to 216 °C; 7: 96 to 98 °C
